Data origin, for the record: the RNAGym collection of RNA variant scans (doi:10.1101/gad.245936.114)

B1: tRNA (parent)
chain: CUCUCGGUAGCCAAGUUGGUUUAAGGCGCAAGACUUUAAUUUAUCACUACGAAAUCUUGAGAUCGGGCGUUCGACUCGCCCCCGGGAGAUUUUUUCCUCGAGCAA

variants of: B1; assay: nonsense suppression (GFP-seq) (ratio to wild type); higher = more function; SUP4oc tRNA, yeast GFP reporter sort-seq
Variants at the floor of the assay were thinned out.
Please respond with reported nonsense suppression for every item in the list.
Form: value (number only, do not type unit).

For the variant shown here, C12U A54U , give the reported nonsense suppression.
0.229

For the variant shown here, U20G U22G , give the reported nonsense suppression.
1.06

For the variant shown here, C5U A30U , give the reported nonsense suppression.
0.138

For the variant shown here, U20G A60U , give the reported nonsense suppression.
1.12

For the variant shown here, U4A A23G , give the reported nonsense suppression.
0.288

For the variant shown here, C12U G28A , give the reported nonsense suppression.
0.51

For the variant shown here, U21C G78C , give the reported nonsense suppression.
0.211

For the variant shown here, G10A G78U , give the reported nonsense suppression.
0.0324

For the variant shown here, A9G A30U , give the reported nonsense suppression.
0.163

For the variant shown here, U17G A24U , give the reported nonsense suppression.
0.159
